tested on: oilseed rape homozygous for HETO133 and HETO134; test: Further field trial, phytotoxicity (Table 3); format: in vivo, Brassica napus; details: g ai/ha: IMAZAMOX 40, BISPYRIBAC-SODIUM 50, PROPOXYCARBAZONE-SODIUM 70, MESOSULFURON-METHYL 60, PYROXSULAM 12.5 with CLOQUINTOCET-MEXYL 37.5, each with RAPESEED OIL METHYLATED 366.5
# key: entry, value: Percentage phytotoxicity HETO133-HETO134 24 DAA
Please give a number only; it is taken to be in %.

>>> print(df.to_string())
                                   molecule  quantitative_result
0  COC(=O)c1ccc(CNS(C)(=O)=O)cc1S(=O)(=O)NC(=O)Nc1nc(OC)cc(OC)n1                  3.3

So what does the record say about Percentage phytotoxicity HETO133-HETO134 24 DAA for COc1cc(OC)n2nc(NS(=O)(=O)c3c(C(F)(F)F)ccnc3OC)nc2n1 ?
15

Which value of Percentage phytotoxicity HETO133-HETO134 24 DAA has been reported for COc1cc(OC)nc(Oc2cccc(Oc3nc(OC)cc(OC)n3)c2C(=O)O)n1 [Bispyribac, bispyribac-sodium] in the records?
92.7

Returns the measured Percentage phytotoxicity HETO133-HETO134 24 DAA for the input molecule. Input: COCc1cnc(C2=NC(C)(C(C)C)C(=O)N2)c(C(=O)O)c1 (centres unmarked)
0

Quick one: Percentage phytotoxicity HETO133-HETO134 24 DAA of CCCOc1nn(C(=O)[N-]S(=O)(=O)c2ccccc2C(=O)OC)c(=O)n1C.[Na+] [Propoxycarbazone, propoxycarbazone-sodium] ?
76.7

----------
System: wild-type segregant (WTS) oilseed rape
Experiment: Field trial, visible phytotoxicity (Table 2)
Format: in vivo, Brassica napus
Details: applied at BBCH 14, 200 L/ha water, g ai/ha: Foramsulfuron 25, TCM 15, Iodosulfuron 7, Mesosulfuron 60, Amidosulfuron 30, Ethoxysulfuron 60, Imazamox 40, Metosulam 30, Bispyribac 50, Nicosulfuron 60, Metsulfuron 8, Propoxycarbazone 70, Pyroxsulam 50, Tribenuron 30, Rimsulfuron 12.5, Flucarbazone 40, Thifensulfuron 7.5
Text: Seeds of spring oilseed rape homozygous for HETO133 and HETO134 were sown in a field according to typical practical agricultural methods. The registered spring oilseed rape variety ABILITY, the wild-type segregant (WTS), and plants comprising a P197S mutation on ALS I and a W574L mutation on ALS III (P197S-W574L) served as a comparison. All plants were cultivated up to BBCH stage 14 (four true leaves of the oilseed rape plants). […]
Item-by-item account of Percentage phytotoxicity WTS 14 DAA
Unit % implied. Number only.

Sample answers from the record:
In [3]: df
Out[3]:
                                   compound                             test_system                      reported_metric  quantitative_result
0  COC(=O)c1csc(C)c1S(=O)(=O)NC(=O)n1nc(OC)n(C)c1=O [TCM, thiencarbazone-methyl]  wild-type segregant (WTS) oilseed rape  Percentage phytotoxicity WTS 14 DAA                   98
1  COC(=O)c1ccc(CNS(C)(=O)=O)cc1S(=O)(=O)NC(=O)Nc1nc(OC)cc(OC)n1 [Mesosulfuron, mesosulfuron-methyl]  wild-type segregant (WTS) oilseed rape  Percentage phytotoxicity WTS 14 DAA                   98
2  COc1cc(OC)n2nc(NS(=O)(=O)c3c(C(F)(F)F)ccnc3OC)nc2n1 [Pyroxsulam, pyroxsulam]  wild-type segregant (WTS) oilseed rape  Percentage phytotoxicity WTS 14 DAA                   98
3  COC(=O)c1ccccc1S(=O)(=O)NC(=O)Nc1nc(C)nc(OC)n1 [Metsulfuron, metsulfuron-methyl]  wild-type segregant (WTS) oilseed rape  Percentage phytotoxicity WTS 14 DAA                   98
4  CCCOc1nn(C(=O)[N-]S(=O)(=O)c2ccccc2C(=O)OC)c(=O)n1C.[Na+] [Propoxycarbazone, propoxycarbazone-sodium]  wild-type segregant (WTS) oilseed rape  Percentage phytotoxicity WTS 14 DAA                   98

We now examine a further compound.
Request: Percentage phytotoxicity WTS 14 DAA, test system wild-type segregant (WTS) oilseed rape, entry COc1nn(C(=O)[N-]S(=O)(=O)c2ccccc2OC(F)(F)F)c(=O)n1C.[Na+] [Flucarbazone, flucarbazone-sodium]
98

Each recorded value in this set is attributed to patent US20160160232A1.
